Assayed System: H1N1 A/New Caledonia/20/1999 hemagglutinin ectodomain, biotinylated HA0 (influenza A virus A/New …, biotin on the BirA site)
Assay Explanation: SPR
Positions of bridges follow the written chain, without caps; N, C: chain ends. Non-standard residues stand in square brackets, D forms with d. No end group written: not given here.
Record form. Attribute: koff. Fill in for each entry.
One number for each entry, in s⁻¹.

P[dP]SLYEDPLGVAGGMGV (also: cyclic peptide, ring closure not given here) [cyclic peptide CP2]; 1.08

Below is a list of binders. For each, state its recorded koff.
1. PPLYEDPLGVAGGMG (also: one Pro of the Pro-Pro template is D, which not given here, cyclic peptide, ring closure not given here) [cyclic peptide CP3]
2. PGLYEDPLGVAGGMG (also: cyclic peptide, ring closure not given here) [cyclic peptide CP6]
3. PGVSLYEDPLGVAGGMGVY (also: cyclic peptide, ring closure not given here) [cyclic peptide CP4]
4. CLYRDPLGVAGGMGC (disulfide 1-15) [cyclic peptide CP8]

1. 0.45
2. 0.42
3. 0.06
4. 0.23

What koff value was documented for this binder, [dP]PVSLYEDPLGVAGGMGVY (also: cyclic peptide, ring closure not given here) [cyclic peptide CP1] ?
0.02
